System: 883617-216-R-J1-PDC complex spheroid viability;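 also: spheroids exposed to compounds for seven days before readout; 100% = DMSO vehicle control viability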
Test: Anticancer human tumor 883617-216-R-J1-PDC patient-derived bladder carcinoma cell line growth inhibition [POLQ]
Details: second compound 10 µM; first compound 10 µM; stronger effect = lower value

{"Molecule": "COc1cccc2c1C(=O)c1c(O)c3c(c(O)c1C2=O)CC(O)(C(=O)CO)CC3OC1CC(N)C(O)C(C)O1 (stereo not drawn) + Cc1cccc(N(C)C(=O)C2C(O)CCN2c2nc(C)cc(C(F)(F)F)c2C#N)c1", "viability, T/C [%]": 0.34}
{"Molecule": "COc1cc(C2c3cc4c(cc3C(OC3OC5COC(C)OC5C(O)C3O)C3COC(=O)C23)OCO4)cc(OC)c1O (stereo not drawn) + COC1C(OC(N)=O)C(O)C(Oc2ccc3c(O)c(NC(=O)c4ccc(O)c(CC=C(C)C)c4)c(=O)oc3c2C)OC1(C)C", "viability, T/C [%]": 53}
{"Molecule": "COc1cc2cc(C(=O)CCC(=O)O)sc2cc1OC + Nc1ccc(C#CCN(C(=O)Cc2ncc(C(F)(F)F)cc2C(F)(F)F)c2ccc(F)cc2)nn1", "viability, T/C [%]": 110}
